Listed next: entries and their corresponding Potency.
- assayed.target: Lysosomal alpha-glucosidase (Homo sapiens)
- assay.method.text: qHTS Assay for Activators of Human alpha-Glucosidase as a Potential Chaperone Treatment of Pompe Disease; also: potency is read from the fitted curve at half-maximal effect; nearly all actives have a fitted effect of over 80% in size
- protocol.conditions: purified enzyme, 4-MU-alpha-glucoside fluorescence, 20 min; series mostly up to 76.9 µM
In all, about 200,000 compounds went through this assay and about 720 (0.36%) were called active. Not shown: some 8% with an inconclusive outcome. Some of the results follow.

Considering Cc1cccc(C(=O)N=c2c(C#N)cc3c(=O)n4cccc(C)c4nc3n2Cc2ccco2)c1 , its Potency with Lysosomal alpha-glucosidase (Homo sapiens) was recorded as 35.5 µM (active)

Note to self: Potency of CC(=O)Nc1ccc(S(=O)(=O)C(C#N)c2nc3ccccc3nc2NCCCO)cc1 (stereo not drawn) with Lysosomal alpha-glucosidase (Homo sapiens) was 31.6 µM (active)

Value sought: Potency, system Lysosomal alpha-glucosidase (Homo sapiens), item CCN(CC)CCCNC(=O)CCC(=O)Nc1ccc2nc(N3CCC(C)CC3)cc(C)c2c1 . Result: 39.8 µM (active)

Next molecule, please.
Item CN(C)CCNC(=O)c1cc2c(s1)-c1ccccc1OC2 ; assay system Lysosomal alpha-glucosidase (Homo sapiens); Potency reported as 6.31 µM (active)

====

- assayed.target: Lysosomal alpha-glucosidase (Homo sapiens) (UniProt P10253)
- assay.method.text: qHTS Assay for Activators of Human alpha-Glucosidase as a Potential Chaperone Treatment of Pompe Disease; also: potency is read from the fitted curve at half-maximal effect; nearly all actives have a fitted effect of over 80% in size
- protocol.conditions: purified enzyme, 4-MU-alpha-glucoside fluorescence, 20 min; series mostly up to 76.9 µM
The campaign covered roughly 200,000 compounds. About 720 (0.36%) were called active. Inconclusive results (about 8%) are left out. This is one part of the list.
recorded.endpoint: Potency

The measured Potency associated with Cc1nc2ccc(S(=O)(=O)Nc3ccc(-c4nc5cccnc5s4)cc3)cc2s1 reads 35.5 µM (active)

Lab note: measured Potency of Cc1cc(=O)oc2cc(OC(=O)c3nn(C(C)C)c(=O)c4ccccc34)ccc12 was 35.5 µM (active)

So, CN1c2ccccc2-c2nc3ccccc3n2C1c1ccco1 (stereo unspecified) ? Its Potency was 39.8 µM (active)

More entries:
So, Cc1cc(=O)oc2c(CN3CCN(C)CC3)c(O)c(Cl)cc12 ? Its Potency was 35.5 µM (active)

The reported Potency of the molecule CCOCCCn1c(=NC(C)=O)c(C#N)cc2c(=O)n3ccccc3nc21 was 31.6 µM (active)

Given item CN(C)S(=O)(=O)c1cccc(-c2cn3cccnc3n2)c1 , the value recorded as its Potency is 39.8 µM (active)

====

- assayed.target: Lysosomal alpha-glucosidase (Homo sapiens) (UniProt P10253)
- assay.method.text: qHTS Assay for Activators of Human alpha-Glucosidase as a Potential Chaperone Treatment of Pompe Disease; also: potency is read from the fitted curve at half-maximal effect; nearly all actives have a fitted effect of over 80% in size
- protocol.conditions: purified enzyme, 4-MU-alpha-glucoside fluorescence, 20 min; series mostly up to 76.9 µM
Among all 200,000 compounds or so, about 720 (0.36%) were called active. About 8% were inconclusive and are not listed. The list shows a part of the results.
recorded.endpoint: Potency

// sample Cc1cccc(-c2cc3nc(-c4ccccc4)cc(N4CCC5(CC4)OCCO5)n3n2)c1 , its Potency was 35.5 µM (active)

Record CC(C)c1cc(=O)oc2c3c4c(cc12)CCCN4CCC3 , field Potency: 35.5 µM (active)

Lab book: Potency of Nc1ccc(-c2nc3ccc(-c4nc5ccccc5o4)cc3[nH]2)cc1 noted as 28.2 µM (active)

What the record says about Cc1ccc2c(c1)Cc1nc3ccccc3nc1-2 : Potency is 35.5 µM (active)

Per the record, Cc1ccc2nc3c(cc(C(=O)NCC4CCCO4)c(=N)n3CCCOC(C)C)c(=O)n2c1 (centres undefined) has Potency of 31.6 µM (active)

Others:
response.value for COc1cccc(-c2cc3nc(-c4ccccc4)cc(N4CCC5(CC4)OCCO5)n3n2)c1 (field: Potency) = 39.8 µM (active)

Record N=c1oc2ccc3ccccc3c2cc1-c1nnc2n1CCCCC2 , field Potency: 35.5 µM (active)

Please fill in: Potency reported for COC(=O)c1ccc2c(=O)n(CCCCCC(=O)O)c(=O)[nH]c2c1 = 31.6 µM (active)

Potency for CCCn1c(=N)c(C(=O)NC2CCCC2)cc2c(=O)n3cccc(C)c3nc21 is 28.2 µM (active)
